tested on: HOP-62; assay: NCI tumour cell line growth inhibition, 48 h
Calls of active or inactive are those of the source. Cut-off read from the data, not from the text of the source: active = GI50 up to about 1.1 µM and inactive = higher.
Just give me one of these, please: Y for active, N for inactive

[
  {
    "compound": "OCC1OC(NC(=S)NCSCCC(F)(F)C(F)(F)C(F)(F)C(F)(F)C(F)(F)C(F)(F)F)C(O)C(O)C1O (stereo not given)",
    "cat": "N"
  }
]

Challenge: Recorded test call requested for C/C(CN1C(=O)c2ccccc2C1=O)=N\NS(=O)(=O)c1ccc(Br)cc1
Response given: N

Challenge: Thanks! And Clc1ccc(-n2nnc(C3=NCCN3)c2-c2ccccc2)cc1 ?
Response given: N

Challenge: Thanks! And O=c1[nH]ncc2[nH]c3c(c12)CCCc1ccccc1-3 ?
Response given: N

Challenge: Thanks! And CC(=O)[C@]1(O)Cc2c(O)c3c(c(O)c2C(OC2OC(C)C(O)C(O)C2F)C1)C(=O)c1ccccc1C3=O (stereo not given in full) ?
Response given: Y

Challenge: Thanks! And CCCCCC(O)(CCCCC)CCCCCCCCC1=C(O)C(=O)c2ccccc2C1=O ?
Response given: N

----------
test system: SK-MEL-5; assay: NCI tumour cell line growth inhibition, 48 h
Activity calls are given as the source filed them. Cut-off read from the data, not from the text of the source: active = GI50 up to about 1.1 µM and inactive = higher.
Just give me one of these, please: active, inactive

Reference set (8 entries):
[
  {
    "compound": "C[n+]1c(/C=C/c2ccc(/C=N/NC(=O)c3ccc(C(=O)N/N=C/c4ccc(/C=C/c5cn6ccccc6[n+]5C)cc4)cc3)cc2)cn2ccccc21",
    "cat": "inactive"
  },
  {
    "compound": "CCOC(=O)c1ccc(NC(=O)O/N=C(/Cl)C(C)C)cc1",
    "cat": "inactive"
  },
  {
    "compound": "CCP(C)(=O)CC",
    "cat": "inactive"
  },
  {
    "compound": "CC1(C)CC[C@]2(C(=O)O)CC[C@]3(C)C(=CCC4=C5C[C@H](O)[C@H](O)[C@@](C)(CO)[C@@]5(C)CC[C@]43C)[C@@H]2C1",
    "cat": "inactive"
  },
  {
    "compound": "N#CC(C#N)=Cn1c(=S)[nH]c2ccccc21",
    "cat": "inactive"
  },
  {
    "compound": "CC(=O)CC(C)(C)NC(=O)[C@@]1(O)CC[C@H]2[C@@H]3CCC4=CC(=O)CC[C@@H]4[C@H]3CC[C@@]21C",
    "cat": "inactive"
  },
  {
    "compound": "CC(=O)OCC1OC(N2C(=O)/C(=C\\c3ccc(Cl)cc3)C(N)=Nc3ccccc32)C(OC(C)=O)C(OC(C)=O)C1OC(C)=O (centres undefined)",
    "cat": "inactive"
  },
  {
    "compound": "CC(=O)OCC1OC(OC2CC3C(C)(C)C(OC(C)=O)CC[C@]3(C)C3CCC45CC4(CCC5[C@@H](C)C[C@H](O)C(O)C(C)(C)O)[C@]23C)C(O)C(O)C1O (some centres undefined)",
    "cat": "inactive"
  }
]

Challenge: Recorded test call requested for C/C(=N\Nc1nc2ccccc2o1)c1ncccn1
Response given: active

Challenge: Thanks! And CCC1(c2c(F)c(F)c(N)c(F)c2F)CCC(=O)NC1=O (centres undefined) ?
Response given: inactive

Challenge: Thanks! And O=C(/C=C1\N=C(c2ccccc2)N(c2nc3c(Cl)cc(Cl)cc3s2)C1=O)/C=C/c1ccccc1 ?
Response given: inactive

Challenge: Thanks! And O=C(CC(=O)n1nc(-c2ccccc2)c(/N=N/c2ccccc2Cl)c1-c1ccccc1)Nc1ccc(Cl)cc1 ?
Response given: inactive

Challenge: Thanks! And C[n+]1cccc(/C=C/c2ccc3cccc(O)c3n2)c1 ?
Response given: inactive

Challenge: Thanks! And Cc1ccc(/C=C2\CN(C)CC3=C2OC(N)=C(C#N)C3c2ccc(C)cc2)cc1 (centres undefined) ?
Response given: inactive

Challenge: Thanks! And COC1(OC)C2C=CC1C([C@](C)(N)CO)C2 (some centres undefined) ?
Response given: inactive

Challenge: Thanks! And O=C1C[C@H]2CC3(CC[C@H]2CN1)OCCO3 ?
Response given: inactive

Challenge: Thanks! And CNc1ccc2nc(-c3ccc(OC(=O)N(C)C)cc3)cn2c1 ?
Response given: inactive

Challenge: Thanks! And CCCCCCCCCCCCCCCCOCC(CN(C)CCN(C)C)OCCCCCCCCCCCCCCCC (centres undefined) ?
Response given: inactive

Challenge: Thanks! And O=C(/C=C/c1ccc(O)cc1)c1ccc(O)cc1 [4,4'-DIHYDROXYCHALCONE] ?
Response given: inactive

Challenge: Thanks! And O=[N+]([O-])c1cccc(Cl)c1Oc1ccc(S(=O)(=O)N/C(=N\O)Nc2ccc(Cl)cc2)cc1 ?
Response given: inactive

Challenge: Thanks! And CC1=C(Cl)C=CP(=O)(OC(C)C)C1 (centres undefined) ?
Response given: inactive

Challenge: Thanks! And CCOC(=O)c1cnc(N(C)C)nc1SC(=N)N ?
Response given: inactive

Challenge: Thanks! And O=C1CCCCC1S(=O)(=O)c1ccccc1 (centres undefined) ?
Response given: inactive

These measurements were taken from ChEMBL document CHEMBL1201862.
